# tested.system: T1, Human VSIG4-L-Fc (human)
# T1 construct: also called hVSIG4-L-Fc; hVSIG4-L
# T1 sequence (chain, as listed by the source limits assumed): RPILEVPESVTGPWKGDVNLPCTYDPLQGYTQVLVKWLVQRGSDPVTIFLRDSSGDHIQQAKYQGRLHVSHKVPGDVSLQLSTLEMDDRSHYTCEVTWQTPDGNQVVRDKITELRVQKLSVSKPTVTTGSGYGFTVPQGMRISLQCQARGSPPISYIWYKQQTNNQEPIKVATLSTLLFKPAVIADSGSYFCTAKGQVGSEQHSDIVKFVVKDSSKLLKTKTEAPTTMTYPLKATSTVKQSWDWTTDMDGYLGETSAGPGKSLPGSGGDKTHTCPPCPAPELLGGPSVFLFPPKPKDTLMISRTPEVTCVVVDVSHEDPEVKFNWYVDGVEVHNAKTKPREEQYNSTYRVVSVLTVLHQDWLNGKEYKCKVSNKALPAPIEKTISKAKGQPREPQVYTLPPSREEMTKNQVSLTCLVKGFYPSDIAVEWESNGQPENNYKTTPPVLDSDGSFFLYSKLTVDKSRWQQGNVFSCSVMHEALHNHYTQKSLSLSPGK
# experimental.details: ligand blocking of iC3b, IgG
I'd appreciate it if you marked entries 1 (yes) when Percent Blocking iC3b is lower than 90% and 0 (no) when it is not.

- binder: "15C04 mouse/human chimeric IgG4 (S228P) kappa (antibody, V domains shown) VH: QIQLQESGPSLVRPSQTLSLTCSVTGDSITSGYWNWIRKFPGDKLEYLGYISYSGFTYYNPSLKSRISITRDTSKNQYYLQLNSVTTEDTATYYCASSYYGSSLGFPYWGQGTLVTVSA VL: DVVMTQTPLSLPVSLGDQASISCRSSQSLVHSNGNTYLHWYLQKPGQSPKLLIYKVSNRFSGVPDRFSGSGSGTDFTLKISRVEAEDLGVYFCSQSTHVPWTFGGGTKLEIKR"
  class: "0 (no)"
- binder: "14D12 mouse/human chimeric IgG4 (S228P) kappa (antibody, V domains shown) VH: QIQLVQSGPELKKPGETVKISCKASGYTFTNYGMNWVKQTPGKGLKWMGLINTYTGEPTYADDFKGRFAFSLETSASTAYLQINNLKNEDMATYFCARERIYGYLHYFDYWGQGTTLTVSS VL: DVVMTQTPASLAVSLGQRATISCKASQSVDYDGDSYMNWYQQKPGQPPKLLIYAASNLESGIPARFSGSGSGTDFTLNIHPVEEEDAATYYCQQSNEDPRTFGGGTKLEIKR"
  class: "0 (no)"
- binder: "13H11 mouse/human chimeric IgG4 (S228P) kappa (antibody, V domains shown) VH: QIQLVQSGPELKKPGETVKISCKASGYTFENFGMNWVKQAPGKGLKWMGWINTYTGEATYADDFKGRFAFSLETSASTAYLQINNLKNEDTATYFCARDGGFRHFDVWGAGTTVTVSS VL: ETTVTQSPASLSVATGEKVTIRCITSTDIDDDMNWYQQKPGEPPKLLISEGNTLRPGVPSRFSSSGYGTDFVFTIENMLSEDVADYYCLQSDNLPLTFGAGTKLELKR"
  class: "1 (yes)"
- binder: "12A08 mouse/human chimeric IgG4 (S228P) kappa (antibody, V domains shown) VH: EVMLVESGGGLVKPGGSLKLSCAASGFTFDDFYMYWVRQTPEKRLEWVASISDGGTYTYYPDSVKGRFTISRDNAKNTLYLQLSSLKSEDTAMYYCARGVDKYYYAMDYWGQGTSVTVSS VL: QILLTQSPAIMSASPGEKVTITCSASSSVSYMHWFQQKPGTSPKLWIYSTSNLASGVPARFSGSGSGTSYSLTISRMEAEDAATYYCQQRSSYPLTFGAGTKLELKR"
  class: "0 (no)"
- binder: "16E10 mouse/human chimeric IgG4 (S228P) kappa (antibody, V domains shown) VH: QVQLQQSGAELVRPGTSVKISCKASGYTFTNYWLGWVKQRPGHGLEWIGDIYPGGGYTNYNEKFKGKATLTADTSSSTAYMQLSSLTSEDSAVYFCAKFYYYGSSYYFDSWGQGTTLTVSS VL: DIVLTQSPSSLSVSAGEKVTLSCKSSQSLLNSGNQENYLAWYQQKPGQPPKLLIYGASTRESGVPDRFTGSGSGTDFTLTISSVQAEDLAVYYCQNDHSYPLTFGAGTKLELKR"
  class: "1 (yes)"
- binder: "12A12 mouse/human chimeric IgG4 (S228P) kappa (antibody, V domains shown) VH: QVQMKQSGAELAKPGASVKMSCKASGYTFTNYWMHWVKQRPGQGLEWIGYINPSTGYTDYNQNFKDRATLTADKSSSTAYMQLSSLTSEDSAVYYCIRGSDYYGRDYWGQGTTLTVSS VL: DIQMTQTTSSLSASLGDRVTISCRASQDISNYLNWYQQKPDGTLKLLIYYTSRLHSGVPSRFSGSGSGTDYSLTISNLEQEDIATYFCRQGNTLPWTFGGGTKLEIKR"
  class: "0 (no)"
